Multi-Tox Assay Max Activity (%) reference
MEASURED_ON: APOL1 (Homo sapiens)
Sequence (O14791 1-398 S342G/I384M): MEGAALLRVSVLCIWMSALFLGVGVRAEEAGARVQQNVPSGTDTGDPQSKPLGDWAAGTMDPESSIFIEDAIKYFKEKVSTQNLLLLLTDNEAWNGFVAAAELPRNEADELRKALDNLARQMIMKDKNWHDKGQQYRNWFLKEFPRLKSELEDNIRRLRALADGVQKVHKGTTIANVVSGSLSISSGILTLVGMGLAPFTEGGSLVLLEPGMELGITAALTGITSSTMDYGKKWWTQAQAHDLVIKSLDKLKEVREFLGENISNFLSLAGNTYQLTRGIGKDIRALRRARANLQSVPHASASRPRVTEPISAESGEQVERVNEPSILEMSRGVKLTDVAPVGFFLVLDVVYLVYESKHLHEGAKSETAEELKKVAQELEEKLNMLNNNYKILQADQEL
TEST_NAME: Multi-Tox Assay (MultiTox-Fluor Multiplex Cytotoxicity Assay in tet-inducible APOL1 T-REx-HEK293 cells; Table 46 does not say which APOL1 variant G0/G1/G2)
Type: cell-based
PARTICULARS: APOL1 variant not given
The reply should contain only the number, in %.

Prompt line: Name the reported Multi-Tox Assay Max Activity (%) value associated with the compound C[C@H]1C[C@@]2(C[C@@H](c3cn(CCOc4ccccc4F)nn3)N1)OCC(F)(F)c1cc(Cl)sc12
Response line: 99.0
